FYI, the data here is from ChEMBL document CHEMBL5036378.

concentration at 1 h for assorted molecules
assay: Drug concentration in female BALB/c mouse plasma at 75 mg/kg, po incubated for 30 mins followed by IL-1beta administration and measured after 30 mins; assay type: ADME, organism-based; settings: time 60 min, read-out: Drug uptake
Just the number in ng/mL, nothing appended.

>  <STRUCTURE>
NC(=O)[C@@H]1[C@H](Nc2nc(Nc3cccc(C(=O)N4CCCC4)c3)ncc2-c2ccnc(F)c2)[C@H]2C=C[C@@H]1C2

>  <concentration at 1 h [ng/mL]>
6820

$$$$

// moving on: another record for concentration at 1 h
[ask] Bench note: what concentration at 1 h did NC(=O)[C@@H]1[C@H](Nc2nc(Nc3cccc(C(=O)N4CCCC4)c3)ncc2-c2cncc(F)c2)[C@H]2C=C[C@@H]1C2 show?
[reply] 2880

* * *

Target: Mitogen-activated protein kinase kinase kinase 7 (Homo sapiens, UniProt O43318)
Sequence (O43318 whole entry): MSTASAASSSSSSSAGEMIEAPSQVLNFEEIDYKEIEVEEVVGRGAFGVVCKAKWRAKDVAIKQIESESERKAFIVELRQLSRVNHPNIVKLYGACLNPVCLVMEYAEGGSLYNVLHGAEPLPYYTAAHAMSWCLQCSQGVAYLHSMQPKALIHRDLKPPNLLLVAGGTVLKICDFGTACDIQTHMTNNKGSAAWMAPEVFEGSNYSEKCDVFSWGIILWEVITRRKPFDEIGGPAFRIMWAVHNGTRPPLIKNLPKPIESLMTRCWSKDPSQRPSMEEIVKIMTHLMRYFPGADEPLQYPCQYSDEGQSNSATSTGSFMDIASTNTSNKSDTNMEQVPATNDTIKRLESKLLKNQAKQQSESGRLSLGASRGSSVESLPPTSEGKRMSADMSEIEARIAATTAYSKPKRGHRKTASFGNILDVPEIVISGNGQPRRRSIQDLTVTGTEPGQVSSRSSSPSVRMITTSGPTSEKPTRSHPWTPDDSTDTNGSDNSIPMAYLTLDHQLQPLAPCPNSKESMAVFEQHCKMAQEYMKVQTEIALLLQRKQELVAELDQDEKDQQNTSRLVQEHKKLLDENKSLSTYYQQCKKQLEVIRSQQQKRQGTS
Experiment: Inhibition of TAK1 (unknown origin) in presence of MBP as substrate by ADP-Glo assay
pIC50 for assorted molecules
Expect pIC50 as a plain number equal to -log10 of the molar concentration.

Worked set:
>  <STRUCTURE>
NC(=O)[C@@H]1[C@H](Nc2nc(Nc3ccc(N4CCOCC4)nc3)ncc2-c2cccc(F)c2)[C@H]2C=C[C@@H]1C2

>  <pIC50>
6.35

$$$$
>  <STRUCTURE>
Cc1cc(Nc2ncc(-c3cccnc3)c(N[C@H]3[C@@H](C(N)=O)[C@@H]4C=C[C@H]3C4)n2)ccc1OCCN1CCCC1

>  <pIC50>
6.35

$$$$

[ask] Bench note: what pIC50 did NC(=O)[C@@H]1[C@H](Nc2nc(Nc3ccc(C(=O)N4CCCC4)cc3)ncc2-c2cccnc2)[C@H]2C=C[C@@H]1C2 show?
[reply] 6.60

[ask] Now try NC(=O)[C@@H]1[C@H](Nc2nc(Nc3cccc(C(=O)N4CCCC4)c3)ncc2-c2cccc(F)c2)[C@H]2C=C[C@@H]1C2 .
[reply] 7.62

[ask] Now try NC(=O)[C@@H]1[C@H](Nc2nc(Nc3ccc(-c4cnco4)cc3)ncc2-c2cccc(F)c2)[C@H]2C=C[C@@H]1C2 .
[reply] 6.41

[ask] Now try NC(=O)[C@@H]1[C@H](Nc2nc(Nc3cccc(C(=O)N4CCCC4)c3)ncc2-c2ccccc2)[C@H]2C=C[C@@H]1C2 .
[reply] 6.77

[ask] Now try NC(=O)[C@@H]1[C@H](Nc2nc(Nc3cc(F)cc(N4CCOCC4)c3)ncc2-c2cccc(F)c2)[C@H]2C=C[C@@H]1C2 .
[reply] 6.00

[ask] Now try CN1CCN(c2ccc(Nc3ncc(-c4cccc(F)c4)c(N[C@H]4[C@@H](C(N)=O)[C@@H]5C=C[C@H]4C5)n3)cn2)CC1 .
[reply] 6.55

[ask] Now try CN1CCN(c2cc(F)cc(Nc3ncc(-c4cccc(F)c4)c(N[C@H]4[C@@H](C(N)=O)[C@@H]5C=C[C@H]4C5)n3)c2)CC1 .
[reply] 7.00

[ask] Now try NC(=O)[C@@H]1[C@H](Nc2nc(Nc3cccc(C(=O)N4CCCC4)c3)ncc2-c2ccncc2)[C@H]2C=C[C@@H]1C2 .
[reply] 6.64

[ask] Now try NC(=O)[C@@H]1[C@H](Nc2nc(Nc3cccc(C(=O)N4CCOCC4)c3)ncc2-c2cccc(F)c2)[C@H]2C=C[C@@H]1C2 .
[reply] 7.03

[ask] Now try NC(=O)[C@@H]1[C@H](Nc2nc(Nc3ccnc(N4CCOCC4)c3)ncc2-c2cccc(F)c2)[C@H]2C=C[C@@H]1C2 .
[reply] 6.80
